Assay: physchem
Conditions: phosphate buffer (Tau(306-336) aggregation assay conditions), pH 7.4, aqueous buffer

# smiles-entry, solubility
data = [
    ("CN(C)CCN1C(=O)S/C(=C\\c2ccc3[nH]c4ccc(/C=C5\\SC(=O)N(CCN(C)C)C5=O)cc4c3c2)C1=O", "< 50 µM"),
]

====

Molecular target: Tau protein (Homo sapiens)
Construct: expressed in transfected cells; host or cells: Escherichia coli BL21 (DE3) with pTARA and pRKT42
Test: Inhibition of Tau aggregation in intact E. coli cells overexpressing Tau (ThS fluorescence)
Assay type: cell-based, Escherichia coli
Settings: read-out: % inhibition Tau aggregation @ 10 μM, intact E. coli cells, compound 10 μM, mean ± SEM of four independent experiments
Would you mind labelling by inhibition at 10 µM? At or over 30% is criterion met, under is criterion not met.

# smiles-entry, assigned-label
records = [
    ("CN(C)CCN1C(=O)S/C(=C\\c2ccc3[nH]c4ccc(/C=C5\\SC(=O)N(CCN(C)C)C5=O)cc4c3c2)C1=O", "criterion met"),
    ("CN(C)CCN1C(=O)S/C(=C\\c2ccc3c(c2)C(C)(C)c2cc(/C=C4\\SC(=O)N(CCN(C)C)C4=O)ccc2-3)C1=O", "criterion met"),
    ("CN(C)CCN1C(=O)S/C(=C\\c2ccc(-c3ccc(/C=C4\\SC(=O)N(CCN(C)C)C4=O)cc3)cc2)C1=O", "criterion met"),
    ("O=C1NC(=O)/C(=C/c2ccc(Cc3ccc(/C=C4\\SC(=O)NC4=O)cc3)cc2)S1", "criterion not met"),
    ("CN(C)CCN1C(=O)S/C(=C\\c2ccc(-c3ccc(/C=C4\\SC(=O)N(CCN(C)C)C4=O)s3)s2)C1=O", "criterion not met"),
    ("CC1(C)c2cc(/C=C3\\SC(=O)NC3=O)ccc2-c2ccc(/C=C3\\SC(=O)NC3=O)cc21", "criterion not met"),
]

====

Target: Tau protein (Homo sapiens, UniProt P10636)
Construct: expressed in transfected cells; host or cells: Escherichia coli BL21 (DE3) with pTARA and pRKT42
Sequence (P10636 1-441 isoform P10636-8): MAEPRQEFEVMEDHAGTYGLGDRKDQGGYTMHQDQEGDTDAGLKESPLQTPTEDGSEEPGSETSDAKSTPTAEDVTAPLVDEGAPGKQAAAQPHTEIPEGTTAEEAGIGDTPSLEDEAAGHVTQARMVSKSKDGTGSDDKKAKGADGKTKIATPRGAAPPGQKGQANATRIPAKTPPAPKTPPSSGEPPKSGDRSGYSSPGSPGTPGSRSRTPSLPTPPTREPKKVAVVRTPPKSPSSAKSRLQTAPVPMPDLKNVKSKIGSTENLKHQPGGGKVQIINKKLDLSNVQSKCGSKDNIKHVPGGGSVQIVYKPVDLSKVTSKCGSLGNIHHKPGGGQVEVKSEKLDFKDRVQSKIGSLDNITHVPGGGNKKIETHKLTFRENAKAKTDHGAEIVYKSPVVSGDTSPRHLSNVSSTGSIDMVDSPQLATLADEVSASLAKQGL
Assay: Inhibition of Tau aggregation in intact E. coli cells overexpressing Tau (ThS fluorescence)
Type: cell-based, Escherichia coli
Settings: read-out: % inhibition Tau aggregation @ 10 μM, intact E. coli cells, compound 10 μM, mean ± SEM of four independent experiments

# molecule, inhibition at 10 µM
data = [
    ("CN(C)CCN1C(=O)S/C(=C\\c2ccc(/C=C3\\SC(=O)N(CCN(C)C)C3=O)cc2)C1=O", "19.4%"),
    ("O=C(O)CN1C(=O)S/C(=C\\c2ccc(-c3ccc(/C=C4\\SC(=O)N(CC(=O)O)C4=O)s3)s2)C1=O", "< 20%"),
    ("O=C(O)CN1C(=O)S/C(=C\\c2ccc(-c3ccc(/C=C4\\SC(=O)N(CC(=O)O)C4=O)cc3)cc2)C1=O", "27.1%"),
    ("CCOC(=O)CN1C(=O)S/C(=C\\c2ccc3[nH]c4ccc(/C=C5\\SC(=O)N(CC(=O)OCC)C5=O)cc4c3c2)C1=O", "30 to 40%"),
    ("O=C1NC(=O)/C(=C/c2ccc3[nH]c4ccc(/C=C5\\SC(=O)NC5=O)cc4c3c2)S1", "21.2%"),
    ("O=C(O)c1cc(O)c2c(c1)C(=O)c1cccc(O)c1C2=O [Rhein, rhein, reference compound]", "39.2%"),
    ("CCOC(=O)CN1C(=O)S/C(=C\\c2ccc3c(c2)C(C)(C)c2cc(/C=C4\\SC(=O)N(CC(=O)OCC)C4=O)ccc2-3)C1=O", "33.1%"),
    ("O=C(O)CN1C(=O)S/C(=C\\c2ccc(/C=C3\\SC(=O)N(CC(=O)O)C3=O)cc2)C1=O", "25.3%"),
    ("CCOC(=O)CN1C(=O)S/C(=C\\c2ccc(-c3ccc(/C=C4\\SC(=O)N(CC(=O)OCC)C4=O)s3)s2)C1=O", "9.2%"),
    ("CCOC(=O)CN1C(=O)S/C(=C\\c2ccc(Cc3ccc(/C=C4\\SC(=O)N(CC(=O)OCC)C4=O)cc3)cc2)C1=O", "19.9%"),
    ("O=C(O)CN1C(=O)S/C(=C\\c2ccc3[nH]c4ccc(/C=C5\\SC(=O)N(CC(=O)O)C5=O)cc4c3c2)C1=O", "30 to 40%"),
    ("O=C1NC(=O)/C(=C/c2ccc(/C=C3\\SC(=O)NC3=O)cc2)S1", "19.4%"),
    ("O=C1NC(=O)/C(=C/c2ccc(-c3ccc(/C=C4\\SC(=O)NC4=O)s3)s2)S1", "< 20%"),
    ("CC1(C)c2cc(/C=C3\\SC(=O)N(CC(=O)O)C3=O)ccc2-c2ccc(/C=C3\\SC(=O)N(CC(=O)O)C3=O)cc21", "> 50%"),
]

====

Test: PAMPA-BBB assay
Settings: PAMPA, pH 7.4
# Papp listing for each entry below
readout-label: Papp (×10⁻⁶ cm/s)

# smiles-entry, units-of-measure, observed
data = [
    ("CN(C)CCN1C(=O)S/C(=C\\c2ccc3[nH]c4ccc(/C=C5\\SC(=O)N(CCN(C)C)C5=O)cc4c3c2)C1=O", "×10⁻⁶ cm/s", 5.3),
    ("CC1(C)c2cc(/C=C3\\SC(=O)N(CC(=O)O)C3=O)ccc2-c2ccc(/C=C3\\SC(=O)N(CC(=O)O)C3=O)cc21", "×10⁻⁶ cm/s", 0.88),
    ("CCOC(=O)CN1C(=O)S/C(=C\\c2ccc(/C=C3\\SC(=O)N(CC(=O)OCC)C3=O)cc2)C1=O", "×10⁻⁶ cm/s", 11.4),
]

====

Target: Tau protein (Homo sapiens, UniProt P10636)
Construct: expressed in transfected cells; host or cells: Escherichia coli BL21 (DE3) with pTARA and pRKT42
Experiment: Inhibition of Tau aggregation in intact E. coli cells overexpressing Tau (ThS fluorescence)
Format: cell-based, Escherichia coli
Conditions: read-out: % inhibition Tau aggregation @ 10 μM, intact E. coli cells, compound 10 μM, mean ± SEM of four independent experiments
# inhibition at 10 µM listing for each entry below

# smiles-entry, inhibition at 10 µM [%]
records = [
    ("CN(C)CCN1C(=O)S/C(=C\\c2ccc(Cc3ccc(/C=C4\\SC(=O)N(CCN(C)C)C4=O)cc3)cc2)C1=O", 38.7),
    ("O=C1NC(=O)/C(=C/c2ccc(-c3ccc(/C=C4\\SC(=O)NC4=O)cc3)cc2)S1", 16.5),
    ("O=C(O)CN1C(=O)S/C(=C\\c2ccc(Cc3ccc(/C=C4\\SC(=O)N(CC(=O)O)C4=O)cc3)cc2)C1=O", 3.8),
    ("CCOC(=O)CN1C(=O)S/C(=C\\c2ccc(-c3ccc(/C=C4\\SC(=O)N(CC(=O)OCC)C4=O)cc3)cc2)C1=O", 18.1),
]

====

Target: Tau protein (Homo sapiens)
Construct: expressed in transfected cells; host or cells: Escherichia coli BL21 (DE3) with pTARA and pRKT42
Assay: Inhibition of Tau aggregation in intact E. coli cells overexpressing Tau (ThS fluorescence)
Assay type: cell-based, Escherichia coli
Settings: intact E. coli cells, compound 10 μM, mean ± SEM of four independent experiments; 10 µM
# % inhibition Tau aggregation @ 10 μM listing for each entry below

# smiles-entry, % inhibition Tau aggregation @ 10 μM / %
rows = [
    ("O=C(O)CN1C(=O)S/C(=C\\c2ccc(-c3ccc(/C=C4\\SC(=O)N(CC(=O)O)C4=O)s3)s2)C1=O", 15.8),
    ("CCOC(=O)CN1C(=O)S/C(=C\\c2ccc(/C=C3\\SC(=O)N(CC(=O)OCC)C3=O)cc2)C1=O", 30.6),
    ("CCOC(=O)CN1C(=O)S/C(=C\\c2ccc3[nH]c4ccc(/C=C5\\SC(=O)N(CC(=O)OCC)C5=O)cc4c3c2)C1=O", 37.7),
    ("O=C(O)CN1C(=O)S/C(=C\\c2ccc3[nH]c4ccc(/C=C5\\SC(=O)N(CC(=O)O)C5=O)cc4c3c2)C1=O", 37.9),
    ("CN(C)CCN1C(=O)S/C(=C\\c2ccc3c(c2)C(C)(C)c2cc(/C=C4\\SC(=O)N(CCN(C)C)C4=O)ccc2-3)C1=O", 41.9),
    ("O=C1NC(=O)/C(=C/c2ccc(-c3ccc(/C=C4\\SC(=O)NC4=O)s3)s2)S1", 19.4),
]

====

# % survival neurotoxicity @ 10 μM listing for each entry below
Tested on: cerebellar granule neurons (CGNs)
Test: Neurotoxicity on primary cultures of cerebellar granule neurons (nuclei counting after Hoechst staining)
Details: differentiated CGNs, 24 h, percentage of healthy nuclei on total nuclei, mean ± SEM of three experiments
readout-label: % survival neurotoxicity @ 10 μM (%)

# compound, units-of-measure, observed
measured = [
    ("O=C1NC(=O)/C(=C/c2ccc(/C=C3\\SC(=O)NC3=O)cc2)S1 [Compound 1]", "%", 77.6),
    ("CC1(C)c2cc(/C=C3\\SC(=O)NC3=O)ccc2-c2ccc(/C=C3\\SC(=O)NC3=O)cc21 [Compound 5]", "%", 67.9),
    ("O=C1NC(=O)/C(=C/c2ccc(Cc3ccc(/C=C4\\SC(=O)NC4=O)cc3)cc2)S1 [Compound 3]", "%", 62.4),
    ("CN(C)CCN1C(=O)S/C(=C\\c2ccc(-c3ccc(/C=C4\\SC(=O)N(CCN(C)C)C4=O)cc3)cc2)C1=O [Compound 20]", "%", 91.1),
    ("O=C(O)CN1C(=O)S/C(=C\\c2ccc3[nH]c4ccc(/C=C5\\SC(=O)N(CC(=O)O)C5=O)cc4c3c2)C1=O [Compound 16]", "%", 90.0),
    ("CN(C)CCN1C(=O)S/C(=C\\c2ccc(-c3ccc(/C=C4\\SC(=O)N(CCN(C)C)C4=O)s3)s2)C1=O [Compound 24]", "%", 88.8),
    ("O=C(O)CN1C(=O)S/C(=C\\c2ccc(/C=C3\\SC(=O)N(CC(=O)O)C3=O)cc2)C1=O [Compound 13]", "%", 82.3),
    ("CCOC(=O)CN1C(=O)S/C(=C\\c2ccc(Cc3ccc(/C=C4\\SC(=O)N(CC(=O)OCC)C4=O)cc3)cc2)C1=O [Compound 9]", "%", 88.7),
    ("CN(C)CCN1C(=O)S/C(=C\\c2ccc(/C=C3\\SC(=O)N(CCN(C)C)C3=O)cc2)C1=O [Compound 19]", "%", 89.4),
    ("CN(C)CCN1C(=O)S/C(=C\\c2ccc(Cc3ccc(/C=C4\\SC(=O)N(CCN(C)C)C4=O)cc3)cc2)C1=O [Compound 21]", "%", 91.1),
    ("O=C1NC(=O)/C(=C/c2ccc(-c3ccc(/C=C4\\SC(=O)NC4=O)cc3)cc2)S1 [Compound 2]", "%", 81.3),
    ("CCOC(=O)CN1C(=O)S/C(=C\\c2ccc3c(c2)C(C)(C)c2cc(/C=C4\\SC(=O)N(CC(=O)OCC)C4=O)ccc2-3)C1=O [Compound 11]", "%", 85.8),
    ("O=C(O)CN1C(=O)S/C(=C\\c2ccc(-c3ccc(/C=C4\\SC(=O)N(CC(=O)O)C4=O)cc3)cc2)C1=O [Compound 14]", "%", 89.0),
    ("O=C(O)CN1C(=O)S/C(=C\\c2ccc(Cc3ccc(/C=C4\\SC(=O)N(CC(=O)O)C4=O)cc3)cc2)C1=O [Compound 15]", "%", 90.9),
    ("CCOC(=O)CN1C(=O)S/C(=C\\c2ccc3[nH]c4ccc(/C=C5\\SC(=O)N(CC(=O)OCC)C5=O)cc4c3c2)C1=O [Compound 10]", "%", 84.2),
    ("CCOC(=O)CN1C(=O)S/C(=C\\c2ccc(-c3ccc(/C=C4\\SC(=O)N(CC(=O)OCC)C4=O)s3)s2)C1=O [Compound 12]", "%", 90.2),
    ("CCOC(=O)CN1C(=O)S/C(=C\\c2ccc(/C=C3\\SC(=O)N(CC(=O)OCC)C3=O)cc2)C1=O [Compound 7]", "%", 90.1),
    ("O=C1NC(=O)/C(=C/c2ccc(-c3ccc(/C=C4\\SC(=O)NC4=O)s3)s2)S1 [Compound 6]", "%", 89.9),
]
